- System: LPA-induced MCP-1 in NRK-49F cells
- Assay Explanation: LPA-induced MCP-1 AlphaLISA assay
- Type: cell-based
- Experimental Setup: Rattus norvegicus, final LPA 10 μM, 7 hours, read-out: Maximum Inhibition
Kindly state Emax for each of the entries shown.
Numeric only. Scale: %

Test item COc1cc(C(=O)N(CCCCc2nnn[nH]2)CCCc2ccccc2)cc(OC)c1C ; LPA-induced MCP-1 in NRK-49F cells; reported Emax was 80

Test item COc1cc(C(=O)N(CCCCC(=O)O)CCCc2ccccc2)cc(OC)n1 ; LPA-induced MCP-1 in NRK-49F cells; reported Emax was 62

Test item CCC1CCC(NC(=O)CN(CCCc2ccccc2)C(=O)c2cc(OC)c(C)c(OC)c2)(C(=O)O)CC1 (stereo not shown) ; LPA-induced MCP-1 in NRK-49F cells; reported Emax was 74

Test item COc1cc(C(=O)N(CCCc2ccccc2)CCOC(C)(C)C(=O)O)cc(OC)c1C ; LPA-induced MCP-1 in NRK-49F cells; reported Emax was 93

---

- Assayed Target: LPAR1 (Homo sapiens)
- Construct: host or cells: U2OS
- Sequence (Q92633 whole entry): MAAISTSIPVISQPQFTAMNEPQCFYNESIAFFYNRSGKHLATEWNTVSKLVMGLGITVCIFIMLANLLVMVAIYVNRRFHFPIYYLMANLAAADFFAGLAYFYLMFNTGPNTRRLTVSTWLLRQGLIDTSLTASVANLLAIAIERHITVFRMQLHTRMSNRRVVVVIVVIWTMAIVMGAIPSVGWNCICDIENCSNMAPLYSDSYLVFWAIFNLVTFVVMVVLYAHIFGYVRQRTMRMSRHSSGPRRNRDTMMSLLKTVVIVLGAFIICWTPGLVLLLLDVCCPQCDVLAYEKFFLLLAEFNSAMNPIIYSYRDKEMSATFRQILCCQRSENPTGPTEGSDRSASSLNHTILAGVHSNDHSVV
- Assay Explanation: LPAR1 FLIPR Assay
- Assay type: cell-based
- Experimental Setup: U2OS cells stably expressing LPAR1; LPA (EC80); Calcium 6 FLIPR dye
- Description: U2OS cells stably expressing LPAR1 (Life Technologies #K1519A) were plated at 12000 cells/well in growth medium (McCoy's 5A medium(Life Technologies 16600-082)) with 10% dFBS (Life Technologies 26400-036), 0.1 mM non-essential amino acids, 25 mM HEPES, 1 mM sodium pyruvate, 1% penicillin/streptomycin, 50 μg/mL hygromycin, and 100 μg/mL Geneticin® in black-walled, clear-bottom 384-well plates (Corning #3683) and incubated in humidified 5% CO2 at 37° C. overnight. […]
Quantity Kind: pIC50
pIC50 (log units): -log10 of the concentration in mol/L.

So for COc1cc(C(=O)N(CCCc2ccc(C)o2)CCCC(C)(O)C(=O)O)cc(OC)c1C (centres unmarked) , the logged pIC50 turned out to be 7.48

So for CCCCC(C)(CCCN(CCCc1ccccc1)C(=O)c1cc(OC)c(C)c(OC)c1)C(=O)O (centres unmarked) , the logged pIC50 turned out to be 6.94

So for COc1cc(C(=O)N(CCCc2ccccc2)CC(=O)N[C@@H](Cc2ccccc2)C(=O)O)cc(OC)c1C , the logged pIC50 turned out to be 6.89

So for COc1cc(C(=O)N(CCCc2ccc(C)o2)CCSCC(=O)O)cc(OC)c1C , the logged pIC50 turned out to be 8.00

So for COc1cc(C(=O)N(CCCc2ccccc2)C[C@H](O)CCC(=O)O)cc(OC)c1C , the logged pIC50 turned out to be 7.41

So for COc1cc(C(=O)N(CCCCC(=O)O)CCCc2ccc(Cl)cc2Cl)cc(OC)c1C , the logged pIC50 turned out to be 4.62

So for COc1cc(C(=O)N(CCCCC(=O)O)CCCc2ccccc2)c(F)c(OC)c1F , the logged pIC50 turned out to be 7.38

So for COc1cc(C(=O)N(CCCc2ccccc2)CCSCC(=O)O)cc(OC)c1C , the logged pIC50 turned out to be 8.10

So for COc1cc(C(=O)N(CCCc2cccc(Cl)c2)CCSCC(=O)O)cc(OC)c1C , the logged pIC50 turned out to be 8.00

So for COc1cc(C(=O)N(CCCc2ccccc2)CC(=O)NC2(C(=O)O)CCCCC2)cc(OC)c1C , the logged pIC50 turned out to be 6.94

So for COc1cc(C(=O)N(CCCCC(=O)O)CCCc2ccccc2)cc(OC)c1C1CC1 , the logged pIC50 turned out to be 7.49

So for COc1cc(C(=O)N(CCCc2ccccc2)CCCC(O)C(=O)O)cc(OC)c1C1CC1 (centres unmarked) , the logged pIC50 turned out to be 7.35
